assay: Urine time course after LSD administration, GC/MS; assay type: in vivo; details: human, urine sample JS U12, 72 hrs after LSD administration
METRIC NAME: concentration at 72 h (ng/mL)
Express the result in ng/mL but write the number alone.

Which value of concentration at 72 h has been reported for CCN(CC)C(=O)[C@@H]1C=C2c3cccc4[nH]cc(c34)C[C@H]2N(C)C1 [LSD, lysergic acid diethylamide] in the records?
0.02

* * *

Assay: Urine time course after LSD administration, GC/MS
Assay type: in vivo
Conditions: human, urine sample SW U4, 8 hrs after LSD administration
Method: In this example, experiments were performed to better define the time course of excretion of LSD metabolites in urine, and the ability of various immunoassays to detect them. Individuals were administered LSD, and urine samples were collected over a four-day period. […] The samples were also measured using the DPC radioimmunoassay (“Coat-A-Count”® LSD assay, by Diagnostic Products Company) according to manufacturer's directions, and by GC/MS). […]
METRIC NAME: concentration at 8 h (ng/mL)
Express the result in ng/mL but write the number alone.

Which value of concentration at 8 h has been reported for CCN(CC)C(=O)[C@@H]1C=C2c3cccc4[nH]cc(c34)C[C@H]2N(C)C1 [LSD, lysergic acid diethylamide] in the records?
0.52
